# Tested on: 786-0 renal
# Assay procedure: NCI tumour cell line growth inhibition, 48 h
# maps each entry to its TGI

Compound	System under test	TGI
COc1ccc2c(c1)-c1nc(=S)n(CCN(C)C)c3ccc([N+](=O)[O-])c(c13)N2	786-0 renal	1.8 µM

Data request: Report TGI for `NC1(C(=O)O)CSSC1` please.
Data returned: > 100 µM

Data request: Input `CCn1c(-c2nonc2N)nc2c(C#CC(C)(C)O)ncc(OC[C@@H]3CCCN3)c21`
Data returned: > 25 µM

Data request: Input `O=C(O)Cn1c[n+](NC(=O)Cc2ccccc2)cn1`
Data returned: > 10 µM

Data request: Input `Cc1cc(N(CCC#N)CCC#N)ccc1/C=C/C(=O)Nc1ccccc1Cl`
Data returned: > 100 µM

Data request: Input `CCCCCc1cc(CCCC)sc1-c1ccco1`
Data returned: > 100 µM

Data request: Input `O/N=C/[C@H]1COC2(CCCCC2)O1`
Data returned: > 100 µM

Data request: Input `C=C[C@@]1(C)CC(=O)[C@]2(O)[C@@]3(C)[C@@H](O)CCC(C)(C)[C@@H]3[C@H](O)[C@@H](OC(C)=O)[C@@]2(C)O1`
Data returned: > 100 µM

Data request: Input CCCCOP1(=O)C=CC(Cl)=C(C)C1 (stereo unspecified)
Data returned: 49.3 µM
